# TEST DESCRIPTION: Anti-oxidant activity
ENDPOINT LABEL: IC50

// solved cases for IC50 follow
{"COMPOUND": "CN(C)c1ccc(/C=C/C(O)=C2\\CCC/C(=C\\c3ccc(N(C)C)cc3)C2=O)cc1", "VALUE MEASURED": "155 µM"}
{"COMPOUND": "COc1ccc(F)cc1/C=C/C(O)=C1\\CCC/C(=C\\c2cc(F)ccc2OC)C1=O", "VALUE MEASURED": "> 250 µM"}
{"COMPOUND": "O=C(/C=C(O)/C=C/c1ccc(O)cc1)/C=C/c1ccc(O)cc1 [Compound 1, reference compound]", "VALUE MEASURED": "> 250 µM"}
{"COMPOUND": "NCCCCC(N)C(=O)Oc1ccc(/C=C/C(=O)/C=C(O)/C=C/c2ccc(OC(=O)C(N)CCCCN)cc2)cc1 (stereo not drawn)", "VALUE MEASURED": "> 250 µM"}

Briefly, IC50 measured for COc1cc(/C=C/C(=O)/C=C(O)/C=C/c2ccc(O)c(OC)c2)ccc1O [Compound 2, reference compound] : 31.7 µM

Briefly, IC50 measured for COc1ccc(F)cc1/C=C/C(=O)/C=C(O)/C=C/c1cc(F)ccc1OC : > 250 µM

Briefly, IC50 measured for NCCCCC(N)C(=O)Oc1ccc(/C=C/C(=O)C2CCC/C(=C\c3ccc(OC(=O)C(N)CCCCN)cc3)C2=O)cc1 (stereo not drawn) : > 250 µM

Briefly, IC50 measured for CC/C(C(=O)/C=C/c1ccc(N(C)C)cc1)=C(O)\C=C\c1ccc(N(C)C)cc1 : 55.3 µM

Briefly, IC50 measured for CC(C)(C)c1ccc(/C=C/C(=O)/C=C(O)/C=C/c2ccc(C(C)(C)C)cc2)cc1 : > 250 µM

----------
# TEST DESCRIPTION: Metabolic stability in human liver microsomes
# Format: in vitro ADME
# DETAILS: human, read-out: Half life, t1/2 HLM
ENDPOINT LABEL: half-life (min)
Could you give me the number in min? Just the number is fine.

{"COMPOUND": "COc1ccccc1/C=C/C(=O)/C=C(O)/C=C/c1ccccc1OC", "half-life [min]": 72.8}

Briefly, half-life measured for COc1cc(O)ccc1/C=C/C(=O)/C=C(O)/C=C/c1ccc(O)cc1OC : 31.5

Briefly, half-life measured for CC(C)C(N)C(=O)Oc1ccc(/C=C/C(=O)/C=C(O)/C=C/c2ccc(OC(=O)C(N)C(C)C)cc2)cc1 (centres unmarked) : 23.8

Briefly, half-life measured for O=C(/C=C(O)/C=C/c1cccc(O)c1)/C=C/c1cccc(O)c1 : 13.3

Briefly, half-life measured for COc1cc(N(C)C)ccc1/C=C/C(O)=C1\CCC/C(=C\c2ccc(N(C)C)cc2OC)C1=O : 127

Briefly, half-life measured for O=C1/C(=C(O)/C=C/c2ccc(O)cc2)CCC/C1=C\c1ccc(O)cc1 : 60.6

Briefly, half-life measured for COc1ccc(/C=C/C(=O)/C=C(O)/C=C/c2ccc(OC)c(O)c2)cc1O : 5

Briefly, half-life measured for COc1cc(/C=C/C(=O)/C=C(O)/C=C/c2ccc(OC(=O)C(N)CCCCN)c(OC)c2)ccc1OC(=O)C(N)CCCCN (centres unmarked) : 19.9

Briefly, half-life measured for COc1cc(/C=C/C(=O)/C=C(O)/C=C/c2ccc(O)c(OC)c2)ccc1O [Compound 2, reference compound] : 40.8

Briefly, half-life measured for NCCCCC(N)C(=O)Oc1ccc(/C=C/C(=O)/C=C(O)/C=C/c2ccc(OC(=O)C(N)CCCCN)cc2)cc1 (centres unmarked) : 19.9

Briefly, half-life measured for COc1cc(/C=C/C(=O)/C=C(O)/C=C/c2ccc(OC(=O)C(N)C(C)C)c(OC)c2)ccc1OC(=O)C(N)C(C)C (centres unmarked) : 55.8

Briefly, half-life measured for COc1cc(N(C)C)ccc1/C=C/C(=O)/C=C(O)/C=C/c1ccc(N(C)C)cc1OC : 63.6

Briefly, half-life measured for COc1ccc(/C=C/C(=O)/C=C(O)/C=C/c2ccc(OC)cc2)cc1 : 9

Briefly, half-life measured for CSc1ccc(/C=C/C(=O)/C=C(O)/C=C/c2ccc(SC)cc2)cc1 : 97.1

# credit: patent US20120040976A1
